measuredTarget: T1, human complement factor D purified from serum (human, UniProt P00746 26-253)
T1 construct: serum-purified (CompTech); also called hCFD-Comptech; CFD
T1 sequence (P00746 26-253): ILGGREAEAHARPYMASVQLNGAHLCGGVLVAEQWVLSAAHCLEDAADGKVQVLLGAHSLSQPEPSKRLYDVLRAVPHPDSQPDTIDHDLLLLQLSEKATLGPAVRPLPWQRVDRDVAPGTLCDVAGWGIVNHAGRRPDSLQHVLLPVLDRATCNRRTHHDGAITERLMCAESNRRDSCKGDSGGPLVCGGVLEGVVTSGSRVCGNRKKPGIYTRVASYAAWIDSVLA
protocolSummary: Biacore, protein A capture
valueKind: pKd
// pKd here means minus log10 of the molar concentration (mol/L)

INSERT INTO results (binder, valuekind, assayresult) VALUES
  ('54V heavy chain / 101V light chain (antibody, V domains shown, IgG) VH: EVQLVESGGGLVQPGGSLRLSCAASGYTFTDYYMNWVRQAPGKGLEWIGDINPVTGDTSYNADFKRRFTFSLDTSKSTAYLQMNSLRAEDTAVYYCTREGPSFAYWGQGTLVTVSS VL: DIQLTQSPSSLSASVGDRVTITCRSSQTIVHSNGDTYLEWYQQKPGKAPNLLIYKVSNRFSGVPSRFSGSGSGTDFTLTISSLQPEDFATYYCFQGSHVPVTFGQGTKVEIK', 'pKd', 10.02),
  ('KCD119 TAF heavy chain / KCD119 TAF light chain (antibody, V domains shown, humanized full IgG captured on protein A; also called TAF KCD119) VH: EVQLVESGGGLVQPGGSLRLSCAASGYTFTDYYMNWVRQAPGKGLEWIGDINPNTGDTSYNADFKRRFTFSLDTSKSTAYLQMNSLRAEDTAVYYCTREGPSFAYWGQGTLVTVSS VL: DIQLTQSPSSLSASVGDRVTITCRSSQTIVHSNGDTYLEWYQQKPGKAPNLLIYKVSNRFSGVPSRFSGSGSGTDFTLTISSLQPEDFATYYCFQGSHVPPTFGQGTKVEIK', 'pKd', 9.64);

Return pKd for the following binder: 54V59D heavy chain / KCD119 TAF light chain (antibody, V domains shown, IgG) VH: EVQLVESGGGLVQPGGSLRLSCAASGYTFTDYYMNWVRQAPGKGLEWIGDINPVTGDTDYNADFKRRFTFSLDTSKSTAYLQMNSLRAEDTAVYYCTREGPSFAYWGQGTLVTVSS VL: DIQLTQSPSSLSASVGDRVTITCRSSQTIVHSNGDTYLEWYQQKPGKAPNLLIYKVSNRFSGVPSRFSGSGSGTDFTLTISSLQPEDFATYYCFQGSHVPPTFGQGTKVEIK 10.28

Please look at this binder and report its pKd: 54V heavy chain / KCD119 TAF light chain (antibody, V domains shown, IgG; also called 54V/wt) VH: EVQLVESGGGLVQPGGSLRLSCAASGYTFTDYYMNWVRQAPGKGLEWIGDINPVTGDTSYNADFKRRFTFSLDTSKSTAYLQMNSLRAEDTAVYYCTREGPSFAYWGQGTLVTVSS VL: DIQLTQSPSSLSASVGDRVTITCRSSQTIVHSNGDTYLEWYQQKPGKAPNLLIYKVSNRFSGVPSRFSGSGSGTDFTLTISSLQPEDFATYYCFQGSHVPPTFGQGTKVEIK 9.82

Answer with reported pKd of 54V59D heavy chain / 101V light chain (antibody, V domains shown, IgG) VH: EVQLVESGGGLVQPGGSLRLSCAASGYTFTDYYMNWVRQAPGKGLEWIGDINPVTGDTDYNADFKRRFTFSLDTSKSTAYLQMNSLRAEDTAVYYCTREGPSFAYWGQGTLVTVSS VL: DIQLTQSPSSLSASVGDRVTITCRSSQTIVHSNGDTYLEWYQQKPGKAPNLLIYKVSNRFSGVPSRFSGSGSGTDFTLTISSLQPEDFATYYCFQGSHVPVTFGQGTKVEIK 10.49
